Some molecules, each annotated with its measured pIC50.
Target or system: Apelin receptor (Homo sapiens)
Experiment description: antagonism across CCR6, APJ and CXCR6 receptors, profiling panel, selectivity assay for CXCR6 antagonist project, cell-based, CHO-K1 PathHunter beta-arrestin, luminescence, set 3 (AID 651708)
Protocol conditions: antagonist mode, APJ, run 2
pIC50: −log10 of the molar value.
Measured quantity: pIC50

[[record]]
molecule = "COc1cccc(C(=O)NC2CC3CCCC(C2)N3CC(=O)Nc2ccc(Cl)cc2)c1 (stereo not given)"
target_or_system = "Apelin receptor (Homo sapiens)"
measured_quantity = "pIC50"
measurement = "< 4.10"

[[record]]
molecule = "O=C(CN1C2CCCC1CC(NC(=O)c1ccc3c(c1)OCO3)C2)Nc1ccccc1 (stereo not given)"
target_or_system = "Apelin receptor (Homo sapiens)"
measured_quantity = "pIC50"
measurement = "< 4.10"

[[record]]
molecule = "COc1ccc(C(=O)NC2CC3CCCC(C2)N3CC(=O)Nc2ccc(C)cc2)cc1OC (stereo not given)"
target_or_system = "Apelin receptor (Homo sapiens)"
measured_quantity = "pIC50"
measurement = "< 4.10"

[[record]]
molecule = "COc1cc(C(=O)NC2CC3CCCC(C2)N3CC(=O)Nc2ccccc2)cc(OC)c1OC (stereo not given)"
target_or_system = "Apelin receptor (Homo sapiens)"
measured_quantity = "pIC50"
measurement = "< 4.10"

[[record]]
molecule = "O=C(CN1C2CCCC1CC(NC(=O)c1ccc3c(c1)OCO3)C2)Nc1ccc(F)cc1 (stereo not given)"
target_or_system = "Apelin receptor (Homo sapiens)"
measured_quantity = "pIC50"
measurement = "< 4.10"

